Hey, just so you know, these numbers are from patent US20260216326A1.

assayed target: T1, human TL1A (Fitzgerald #30R-AT070) (human, UniProt O95150 72-251, limits assumed)
T1 construct: Coated on the ELISA plate at 1 ug/mL; also called TNFSF15
T1 sequence (looked up): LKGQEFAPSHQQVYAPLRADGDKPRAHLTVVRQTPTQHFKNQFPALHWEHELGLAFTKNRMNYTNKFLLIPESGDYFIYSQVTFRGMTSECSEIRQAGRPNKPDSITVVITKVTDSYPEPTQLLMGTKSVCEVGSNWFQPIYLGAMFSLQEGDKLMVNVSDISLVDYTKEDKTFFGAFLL
experiment notes: ELISA titration, coated human TL1A, culture supernatant
Some binders, each annotated with its measured Kd.
All answers are understood in nM, so give the number only.

Consider the following illustrative entries.
binder | observed value
A75 (antibody, human IgG1, V domains shown, human IgG1/kappa (pFuse vectors), culture supernatant) VH: QVQLVQSGAEVKKPGASVKVSCKASGFDIQDTYMHWVRQAPGQGLEWMGRIEPASGHIKYDPKFQGRATITTDTSTSTVYMELSSLRSEDTAVYYCARSGGLPDWWGQGTTVTVSS VL: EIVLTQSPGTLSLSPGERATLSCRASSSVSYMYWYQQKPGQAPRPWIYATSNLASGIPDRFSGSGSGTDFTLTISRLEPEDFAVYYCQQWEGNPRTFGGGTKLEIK | 0.259
A47 (antibody, human IgG1, V domains shown, human IgG1/kappa (pFuse vectors), culture supernatant) VH: QVQLVQSGAEVKKPGASVKVSCKASGFDIQDTYMHWVKQRPGQGLEWIGRIDPASGHTKYDPKFQVRVTMTRDTSTSTAYLELSSLRSEDTAVYYCARSGGLPDVWGQGTTVTVSS VL: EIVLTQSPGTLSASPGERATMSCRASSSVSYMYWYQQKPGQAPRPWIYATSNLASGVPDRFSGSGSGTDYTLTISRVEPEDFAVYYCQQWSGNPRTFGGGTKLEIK | 0.082

Query (binder): A143 (antibody, human IgG1, V domains shown, human IgG1/kappa (pFuse vectors), culture supernatant) VH: QVQLVQSGAEVKKPGASVKVSCKASGFDIQDTYMHWVRQAPGQGLEWMGRIEPASGHIKYDPKFQGRVTMTRDTSTSTVYMELSSLRSEDTAVYYCARSGGLPDWWGQGTTVTVSS VL: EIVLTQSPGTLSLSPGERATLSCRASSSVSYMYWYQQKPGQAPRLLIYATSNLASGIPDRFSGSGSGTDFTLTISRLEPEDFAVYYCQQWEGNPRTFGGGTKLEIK ; field requested: Kd
0.085

Given A57 (antibody, human IgG1, V domains shown, human IgG1/kappa (pFuse vectors), culture supernatant) VH: QVQLVQSGAEVKKPGASVKVSCKASGFDIQDTYMHWVRQRPGQGLEWMGRIEPASGHIKYDPKFQGRVTMTRDTSTSTVYMELSSLRSEDTAVYYCARSGGLPDWWGQGTTVTVSS VL: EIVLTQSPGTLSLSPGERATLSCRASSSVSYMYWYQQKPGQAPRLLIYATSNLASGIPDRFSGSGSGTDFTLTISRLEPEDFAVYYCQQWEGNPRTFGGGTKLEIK , state its recorded Kd.
0.191
